B1: ZNF263 (parent)
chain: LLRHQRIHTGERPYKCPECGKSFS

- Variants of: B1
- Measurement Notes: protein stability index of a GFP-peptide fusion (GPS, HEK-293T) (PSI 1-6); higher = more stable;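 note: lentivirally expressed fusions sorted by FACS into six bins by GFP to DsRed ratio, PSI derived from sequencing read proportions per bin multiplied by bin number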
- Stated Conditions: c terminus: a fixed tail appended
# protein stability index per entry
Answer with the value's number alone.

A selection of reference data follows.
[[record]]
mutation_notation = "L1Y"
numeric_readout = 3.07

[[record]]
mutation_notation = "R12V"
numeric_readout = 2.91


Field protein stability index (entry `G10E` ) reads 3.06
